Numbers sourced from patent US8022091B2.

- targetUnderTest: human Edg-1 (S1P1) (Homo sapiens)
- Construct: expressed in transfected cells; host or cells: HEK-293
- assayInfo: S1P1 binding assay: inhibition of [33P]-S1P binding to membrane fraction of HEK-293 cells transferred with the human Edg-1 (S1P1) gene
- experimentalSetup: test compound 10 μM; inhibition of [33P]-S1P binding, membrane fraction
measuredEndpoint: inhibition at 10 µM (%)

P = CCn1c(Oc2cccc(N3CCN(C)CC3)c2)nnc1[C@@H](C)NS(=O)(=O)c1ccc(C(F)(F)F)cc1Cl
Q = CCOc1ccc(NC(C)=O)cc1S(=O)(=O)N[C@H](C)c1nnc(Oc2cccc(N3CCN(C)CC3)c2)n1CC
INPUT: Please choose the item with the lower inhibition at 10 µM value from this pair: P and Q Reply briefly: the label of your chosen item.
OUTPUT: Q
(Q: 64.7%, P: 93%)

----------
- targetUnderTest: human Edg-1 (S1P1) (Homo sapiens)
- assayInfo: S1P1 binding assay: inhibition of [33P]-S1P binding to membrane fraction of HEK-293 cells transferred with the human Edg-1 (S1P1) gene
- experimentalSetup: [33P]-S1P 0.1 nM, human Edg-1 (S1P1) HEK-293 membrane fraction, 1 h at 30° C.; read-out: IC50 (concentration at which binding in the absence of the test compound was inhibited by 50%)
pIC50: −log10 of the molar value.
measuredEndpoint: pIC50

molecule="CCn1c(Oc2cccc(N3CCN(C)CC3)c2)nnc1[C@@H](C)NS(=O)(=O)c1ccc2c(Br)cccc2c1 [Compound 667]" targetundertest="human Edg-1 (S1P1) (Homo sapiens)" measuredendpoint=pIC50 obsvalue="≥ 8.00"
molecule="CCn1c(Oc2cccc(N3CCN(C)CC3)c2)nnc1[C@@H](C)NS(=O)(=O)c1ccc(F)c(Cl)c1 [Compound 109]" targetundertest="human Edg-1 (S1P1) (Homo sapiens)" measuredendpoint=pIC50 obsvalue="≥ 7.46"

INPUT: Find pIC50 (human Edg-1 (S1P1) (Homo sapiens)) for the entry CCn1c(Oc2cccc(C)c2)nnc1[C@@H](C)NS(=O)(=O)c1ccc(Cl)c(Cl)c1 [Compound 5]
OUTPUT: ≥ 7.46

INPUT: Find pIC50 (human Edg-1 (S1P1) (Homo sapiens)) for the entry CCn1c(Oc2cccc(N3CCN(C)CC3)c2)nnc1[C@@H](C)NS(=O)(=O)c1ccc2cccc(Cl)c2c1 [Compound 666]
OUTPUT: ≥ 8.00

INPUT: Find pIC50 (human Edg-1 (S1P1) (Homo sapiens)) for the entry CCn1c(Oc2cccc(N3CCNCC3)c2)nnc1[C@@H](C)NS(=O)(=O)c1ccc2c(Cl)cccc2c1 [Compound 688]
OUTPUT: 8.82

INPUT: Find pIC50 (human Edg-1 (S1P1) (Homo sapiens)) for the entry CCn1c(Oc2ccc(Cl)cc2)nnc1[C@@H](C)NS(=O)(=O)c1ccc2c(Cl)cccc2c1 [Compound 139]
OUTPUT: ≥ 8.00

INPUT: Find pIC50 (human Edg-1 (S1P1) (Homo sapiens)) for the entry CCn1c(Oc2cccc(N3CCN(C)CC3)c2)nnc1[C@@H](C)NS(=O)(=O)c1ccc2ccc(Cl)cc2c1 [Compound 665]
OUTPUT: ≥ 7.46

INPUT: Find pIC50 (human Edg-1 (S1P1) (Homo sapiens)) for the entry CCn1c(Oc2cccc(N3CCN(C)CC3)c2)nnc1[C@@H](C)NS(=O)(=O)c1ccc(C(F)(F)F)cc1 [Compound 142]
OUTPUT: ≥ 7.46

INPUT: Find pIC50 (human Edg-1 (S1P1) (Homo sapiens)) for the entry CCn1c(Oc2ccc(OCc3ccccc3)cc2)nnc1[C@@H](C)NS(=O)(=O)c1ccc(Cl)c(Cl)c1 [Compound 23]
OUTPUT: ≥ 7.46

INPUT: Find pIC50 (human Edg-1 (S1P1) (Homo sapiens)) for the entry CCn1c(Oc2cccc(N3CCN(C)CC3)c2)nnc1[C@@H](C)NS(=O)(=O)c1ccc2c(I)cccc2c1 [Compound 690]
OUTPUT: ≥ 8.00

----------
- targetUnderTest: human Edg-1 (S1P1) (Homo sapiens)
- Construct: expressed in transfected cells; host or cells: HEK-293
- assayInfo: S1P1 binding assay: inhibition of [33P]-S1P binding to membrane fraction of HEK-293 cells transferred with the human Edg-1 (S1P1) gene
- experimentalSetup: test compound at 10 μM; inhibition of [33P]-S1P binding to the membrane fraction of HEK-293 cells expressing human Edg-1 (S1P1)
measuredEndpoint: inhibition at 10 µM (%)

mol=CCn1c(Oc2ccc(F)cc2)nnc1[C@@H](C)NS(=O)(=O)c1ccc(F)c(C#N)c1 obsvalue=73.6
mol=CCn1c(Oc2ccc3cc[nH]c3c2)nnc1[C@@H](C)NS(=O)(=O)c1ccc2ccccc2c1 obsvalue=98.9
mol=CCn1c(Oc2cccc(-n3cccc3)c2)nnc1[C@@H](C)NS(=O)(=O)c1ccc(Cl)c(Cl)c1 obsvalue=107
mol=CCn1c(Oc2ccc(N(C)C)cc2)nnc1[C@@H](C)NS(=O)(=O)c1ccc(Cl)c(Cl)c1 obsvalue=99.8
mol=CCn1c(Oc2cccc(N3CCN(CCN(C)C)CC3)c2)nnc1[C@@H](C)NS(=O)(=O)c1ccc(Cl)c(Cl)c1 obsvalue=101
mol=CCn1c(Oc2ccc(F)cc2)nnc1[C@@H](C)NS(=O)(=O)c1cc(F)ccc1C obsvalue=70.8
mol=CCn1c(Oc2ccc(C)cn2)nnc1[C@@H](C)NS(=O)(=O)c1ccc(Cl)c(Cl)c1 obsvalue=95.5
mol=CCn1c(Oc2ccc(C)cc2)nnc1[C@@H](Cc1ccccc1)NS(=O)(=O)c1ccc(Cl)c(Cl)c1 obsvalue=99.8
mol=CCn1c(Oc2ccc(F)cc2)nnc1[C@@H](C)NS(=O)(=O)c1cccc(C(F)(F)F)c1 obsvalue=107
mol=CCn1c(Cc2ccc(F)cc2)nnc1[C@@H](C)NS(=O)(=O)c1csc2ccccc12 obsvalue=81.8
mol=CCn1c(Oc2ccc(F)cc2)nnc1[C@@H](C)NS(=O)(=O)c1cccc(Cl)c1F obsvalue=87.3
mol=CCn1c(Oc2cc(C)cc(C)c2)nnc1[C@@H](C)NS(=O)(=O)c1ccc(Cl)c(Cl)c1 obsvalue=97.9
mol=CCn1c(Oc2cccc(NC(C)=O)c2)nnc1[C@@H](C)NS(=O)(=O)c1ccc(Cl)c(Cl)c1 obsvalue=100
mol=CCn1c(Oc2ccc3cc[nH]c3c2)nnc1[C@@H](C)NS(=O)(=O)c1ccc(C)c(Cl)c1 obsvalue=99.5
mol=CCn1c(Oc2ccc(F)cc2)nnc1[C@@H](C)NS(=O)(=O)c1ccc(Br)c(Br)c1 obsvalue=95.2

----------
- targetUnderTest: human Edg-1 (S1P1) (Homo sapiens, UniProt P21453)
- Construct: expressed in transfected cells; host or cells: HEK-293
- Sequence (P21453 whole entry): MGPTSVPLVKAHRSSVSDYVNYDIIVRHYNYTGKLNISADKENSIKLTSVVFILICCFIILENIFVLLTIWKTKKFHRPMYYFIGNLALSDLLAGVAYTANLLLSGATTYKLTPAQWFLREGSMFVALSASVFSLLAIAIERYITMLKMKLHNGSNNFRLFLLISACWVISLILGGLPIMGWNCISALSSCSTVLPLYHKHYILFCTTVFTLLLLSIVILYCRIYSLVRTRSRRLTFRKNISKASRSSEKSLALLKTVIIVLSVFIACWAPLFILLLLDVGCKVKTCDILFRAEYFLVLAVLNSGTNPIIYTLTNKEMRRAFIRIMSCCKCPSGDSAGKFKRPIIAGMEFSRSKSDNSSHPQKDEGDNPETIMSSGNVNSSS
- assayInfo: S1P1 binding assay: inhibition of [33P]-S1P binding to membrane fraction of HEK-293 cells transferred with the human Edg-1 (S1P1) gene
- experimentalSetup: test compound 10 μM; inhibition of [33P]-S1P binding, membrane fraction
measuredEndpoint: inhibition at 10 µM (%)

mol=CCn1c(Oc2cccc(N3CCN(C)CC3)c2)nnc1[C@@H](C)NS(=O)(=O)c1ccccc1OC(F)(F)F measuredendpoint="inhibition at 10 µM" obsvalue=64.1
mol=CCn1c(Oc2ccc3cc[nH]c3c2)nnc1[C@@H](C)NS(=O)(=O)c1cccc(F)c1 measuredendpoint="inhibition at 10 µM" obsvalue=87.8

a = CCn1c(Oc2cccc(N3CCN(C)CC3)c2)nnc1[C@@H](C)NS(=O)(=O)c1cccc(Cl)c1F
b = CCn1c(Oc2cccc(N3CCN(C)CC3)c2)nnc1[C@@H](C)NS(=O)(=O)c1c(C(C)C)cc(C(C)C)cc1C(C)C
INPUT: Higher inhibition at 10 µM: a or b ? Reply briefly: the label of your chosen item.
OUTPUT: a

----------
- targetUnderTest: human Edg-1 (S1P1) (Homo sapiens, UniProt P21453)
- Construct: expressed in transfected cells; host or cells: HEK-293
- assayInfo: S1P1 binding assay: inhibition of [33P]-S1P binding to membrane fraction of HEK-293 cells transferred with the human Edg-1 (S1P1) gene
- experimentalSetup: test compound 10 μM; inhibition of [33P]-S1P binding, membrane fraction
measuredEndpoint: inhibition at 10 µM (%)

mol=CCn1c(Oc2ccc3cc[nH]c3c2)nnc1[C@@H](C)NS(=O)(=O)c1cnn(-c2ccccc2)c1C obsvalue=56.2

A = CCn1c(Oc2cccc(N3CCN(C)CC3)c2)nnc1[C@@H](C)NS(=O)(=O)c1cc(Cl)cc(Cl)c1
B = CCn1c(Oc2ccc3cc[nH]c3c2)nnc1[C@@H](C)NS(=O)(=O)c1ccc(-c2ccno2)s1
INPUT: Higher inhibition at 10 µM: A or B ? Reply briefly: the label of your chosen item.
OUTPUT: A
(A: 116%, B: 71.1%)

P = CCn1c(Oc2cccc(N3CCN(C(C)C)CC3)c2)nnc1[C@@H](C)NS(=O)(=O)c1ccc2c(Cl)cccc2c1
Q = CCn1c(Oc2cccc(N3CCN(C)CC3)c2)nnc1[C@@H](C)NS(=O)(=O)c1ccccc1F
INPUT: Please choose the item with the lower inhibition at 10 µM value from this pair: P and Q Reply briefly: the label of your chosen item.
OUTPUT: Q

I = CCn1c(Oc2cccc(N3CCN(C)CC3)c2)nnc1[C@@H](C)NS(=O)(=O)c1cc(C)ccc1OC
II = CCc1cc(Br)ccc1S(=O)(=O)N[C@H](C)c1nnc(Oc2ccc3cc[nH]c3c2)n1CC
INPUT: Higher inhibition at 10 µM: I or II ? Reply briefly: the label of your chosen item.
OUTPUT: I
(I: 93.3%, II: 56.3%)
